Data credit: patent US9708316B2

Assay target: UniProtKB P37173
Protocol summary: HTRF probe-displacement assay, HIS-TGFβR2 WT
Assay type: binding
Assay endpoint: IC50 (µM)

CC(=O)Nc1cc(-c2[nH]c3nccnc3c2-c2cccc(Cl)n2)ccn1 = 0.069
CC(=O)Nc1cc(-c2[nH]c3cc(F)cnc3c2-c2nc(C)cs2)ccn1 = 0.057
COc1cnc2c(-c3cccc(C(F)F)n3)c(-c3ccnc(NC(C)=O)c3)[nH]c2c1 = 1.85
O=C(CN1CCN(CCO)CC1)Nc1cc(-c2[nH]c3cc(Cl)cnc3c2-c2ccc(F)cn2)ccn1 = 5.99
CC(=O)Nc1cc(-c2[nH]c3c(C4CCCCO4)ccnc3c2-c2cccc(C(F)F)n2)ccn1 (centres unmarked) = 8.66

I = CC(=O)Nc1cc(-c2[nH]c3c(C(F)F)ccnc3c2-c2cccc(C(F)F)n2)ccn1
II = CC(=O)Nc1cc(-c2[nH]c3c([C@H](C)O)ccnc3c2-c2cccc(C(F)F)n2)ccn1 (single isomer, unassigned)
For the pair I and II , which member has the lower IC50 number? Bench note: the answer is the label of the chosen record.
II
(II: 0.75 µM, I: 8.37 µM)

----------
Assay target: HIS-TGFβR2 WT (Homo sapiens, UniProt P37173)
Sequence (P37173 23-567): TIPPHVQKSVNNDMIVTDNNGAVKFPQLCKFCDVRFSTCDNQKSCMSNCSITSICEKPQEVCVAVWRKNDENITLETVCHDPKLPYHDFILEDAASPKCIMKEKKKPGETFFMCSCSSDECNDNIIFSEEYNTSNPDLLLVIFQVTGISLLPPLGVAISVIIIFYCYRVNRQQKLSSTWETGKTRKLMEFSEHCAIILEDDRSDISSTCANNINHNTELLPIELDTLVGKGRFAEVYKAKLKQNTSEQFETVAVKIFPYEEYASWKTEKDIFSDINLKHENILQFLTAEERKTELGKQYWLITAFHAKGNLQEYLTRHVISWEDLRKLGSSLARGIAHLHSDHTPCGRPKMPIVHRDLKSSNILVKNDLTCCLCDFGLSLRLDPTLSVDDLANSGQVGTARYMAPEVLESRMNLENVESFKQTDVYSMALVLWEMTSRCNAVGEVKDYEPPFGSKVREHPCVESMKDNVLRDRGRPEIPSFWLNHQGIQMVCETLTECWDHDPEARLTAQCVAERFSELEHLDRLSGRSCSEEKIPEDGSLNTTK
Protocol summary: HTRF probe-displacement assay, HIS-TGFβR2 WT
Format: binding
Assay endpoint: IC50 (µM)

Example cases with answers are listed next.
COCC(C)Oc1cnc2c(-c3cccc(C(F)F)n3)c(-c3ccnc(NC(C)=O)c3)[nH]c2c1 (centres unmarked) = 4.92
CC(=O)Nc1cc(-c2[nH]c3cccnc3c2-c2cn[nH]c2)ccn1 = 0.089
COc1nc(-c2c(-c3ccnc(NC(C)=O)c3)[nH]c3cccnc23)cs1 = 1.53
CC(=O)Nc1cc(-c2[nH]c3cccnc3c2-c2nc(C)cs2)ccn1 = 0.041
CC(=O)Nc1cc(-c2[nH]c3cc(F)cnc3c2-c2csc(C)n2)ccn1 = 5.65
CC(=O)Nc1cc(-c2[nH]c3cccnc3c2-c2ccc(C#N)s2)ccn1 = 0.24
CC(=O)Nc1cc(-c2[nH]c3cccnc3c2-c2ccn[nH]2)ccn1 = 2

1 = O=C(CNCCCN1CCOCC1)Nc1cc(-c2[nH]c3cc(Cl)cnc3c2-c2ccc(F)cn2)ccn1
2 = CC(=O)Nc1cc(-c2[nH]c3cccnc3c2-c2cccc(C#N)n2)ccn1
Could you please tell me which of these two has the higher IC50: 1 or 2 ? Bench note: the answer is the label of the chosen record.
2
(2: 13.1 µM, 1: 4.81 µM)

----------
Assay target: HIS-TGFβR2 WT (Homo sapiens, UniProt P37173)
Protocol summary: HTRF probe-displacement assay, HIS-TGFβR2 WT
Assay type: binding
Assay endpoint: IC50 (µM)

Example cases with answers are listed next.
COc1ccnc2c(-c3cccc(F)n3)c(-c3ccnc(NC(C)=O)c3)[nH]c12 [Example 273] = 1.36
CC(=O)Nc1cc(-c2[nH]c3cc(Cl)cnc3c2-c2nc(CO)cs2)ccn1 [Example 178] = 0.176
CN1CCN(CC(=O)Nc2cc(-c3[nH]c4cc(Cl)cnc4c3-c3ccc(F)cn3)ccn2)CC1 [Example 88] = 9.92

P = COc1ccc(-c2c(-c3ccnc(NC(C)=O)c3)[nH]c3cc(CN)cnc23)cn1 [Example 79]
Q = CCC(OC(N)=O)c1ccnc2c(-c3ccc(OC)nc3)c(-c3ccnc(NC(C)=O)c3)[nH]c12 (centres unmarked) [Example 302]
For the pair P and Q , which member has the lower IC50 number? Bench note: the answer is the label of the chosen record.
P

----------
Assay target: HIS-TGFβR2 WT (Homo sapiens)
Protocol summary: HTRF probe-displacement assay, HIS-TGFβR2 WT
Assay type: binding
Assay endpoint: IC50 (µM)

CC(=O)Nc1cc(-c2[nH]c3cc(Br)cnc3c2-c2cccc(C(F)F)n2)ccn1 [Example 272] = 1.85
COC(=O)c1ccnc2c(-c3ccc(F)cn3)c(-c3ccnc(NC(C)=O)c3)[nH]c12 [Example 71] = 4.38

P = COc1ccc(-c2c(-c3ccnc(NC(C)=O)c3)[nH]c3cc(OC)cnc23)nc1 [Example 284]
Q = CC(=O)Nc1cc(-c2[nH]c3c(C)ccnc3c2-c2nc(C(F)(F)F)cs2)ccn1 [Example 212]
R = CC(=O)Nc1cc(-c2[nH]c3cccnc3c2-c2nccs2)ccn1 [Example 205]
S = CC(=O)Nc1cc(-c2[nH]c3cc(Cl)cnc3c2-c2ccc(F)cn2)ccn1 [Example 42]
T = COc1cnc2c(-c3ccc(F)cn3)c(-c3ccnc(NC(C)=O)c3)[nH]c2c1 [Example 49]
// ascending sort on recorded IC50 Would you mind listing the labels in the order requested?
R, T, S, P, Q
(R: 0.147 µM, T: 0.24 µM, S: 0.46 µM, P: 5.22 µM, Q: 8.82 µM)

A = CC(=O)Nc1cc(-c2[nH]c3cccnc3c2-c2cccc3ccncc23)ccn1 [Example 19]
B = [2H]C([2H])([2H])Oc1ccc(-c2c(-c3ccnc(NC(C)=O)c3)[nH]c3cc(OC)cnc23)nc1 [Example 112]
For the pair A and B , which member has the lower IC50 number? Bench note: the answer is the label of the chosen record.
A

----------
Assay target: HIS-TGFβR1 T204D (Homo sapiens, UniProt P36897, T204D)
Sequence (P36897 34-503 T204D): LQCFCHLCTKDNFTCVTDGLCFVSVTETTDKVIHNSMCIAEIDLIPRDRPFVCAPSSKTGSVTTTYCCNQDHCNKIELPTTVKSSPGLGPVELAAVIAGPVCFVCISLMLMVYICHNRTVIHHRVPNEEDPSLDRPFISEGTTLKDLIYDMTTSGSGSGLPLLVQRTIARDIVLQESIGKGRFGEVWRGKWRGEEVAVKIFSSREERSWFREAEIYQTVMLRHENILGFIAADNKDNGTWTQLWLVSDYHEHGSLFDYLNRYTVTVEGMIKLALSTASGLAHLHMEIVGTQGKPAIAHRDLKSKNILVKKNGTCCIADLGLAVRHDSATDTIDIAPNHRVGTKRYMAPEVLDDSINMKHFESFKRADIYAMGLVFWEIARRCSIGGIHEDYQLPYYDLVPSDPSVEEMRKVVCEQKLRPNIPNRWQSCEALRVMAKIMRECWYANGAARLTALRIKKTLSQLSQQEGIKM
Protocol summary: HTRF probe-displacement assay, HIS-TGFβR1 T204D
Format: binding
Condition info: read-out: TGFβR1 (μM) IC50
Assay endpoint: IC50 (µM)

CC(=O)Nc1cc(-c2[nH]c3c(CO)ccnc3c2-c2ccc(C)nc2)ccn1 [Example 280] = 0.023
COc1nc(-c2c(-c3ccnc(NC(C)=O)c3)[nH]c3cccnc23)cs1 [Example 201] = 0.0275
CC(=O)Nc1cc(-c2[nH]c3cc(Cl)cnc3c2-c2ccc(F)cn2)ccn1 [Example 42] = 0.004
COc1ccc(-c2c(-c3ccnc(NC(=O)CN4CCN(C)CC4)c3)[nH]c3cc(Cl)cnc23)cn1 [Example 292] = 0.001
CC(=O)Nc1cc(-c2[nH]c3c(OCCN4CCCC4)ccnc3c2-c2cccc(C(F)F)n2)ccn1 [Example 126] = 0.009

I = COc1cc(-c2c(-c3ccnc(NC(C)=O)c3)[nH]c3cccnc23)ccn1 [Example 196]
II = CC(=O)Nc1cc(-c2[nH]c3cccnc3c2-c2ccc3[nH]ccc3c2)ccn1 [Example 20]
For the pair I and II , which member has the lower IC50 number? Bench note: the answer is the label of the chosen record.
II
(II: 0.005 µM, I: 0.0951 µM)

----------
Assay target: HIS-TGFβR2 WT (Homo sapiens)
Protocol summary: HTRF probe-displacement assay, HIS-TGFβR2 WT
Assay type: binding
Assay endpoint: IC50 (µM)

Example cases with answers are listed next.
CC(=O)Nc1cc(-c2[nH]c3cc(C)cnc3c2-c2csc(C)n2)ccn1 = 0.821
CC(=O)Nc1cc(-c2[nH]c3cccnc3c2-c2csc(C)n2)ccn1 = 1.04
C[C@H](O)C(=O)Nc1cc(-c2[nH]c3cc(Cl)cnc3c2-c2ccc(F)cn2)ccn1 = 15.5
COc1ccc(-c2c(-c3ccnc(NC(C)=O)c3)[nH]c3c(C)ccnc23)cn1 = 0.999
CC(=O)Nc1cc(-c2[nH]c3c(CO)ccnc3c2-c2cccc(C)n2)ccn1 = 9.9

I = COc1ccc(-c2c(-c3ccnc(NC(C)=O)c3)[nH]c3ccc(OC)nc23)cn1
II = CC(=O)Nc1cc(-c2[nH]c3cc(F)cnc3c2-c2ncc(Cl)s2)ccn1
For the pair I and II , which member has the lower IC50 number? Bench note: the answer is the label of the chosen record.
II

I = CC(=O)Nc1cc(-c2[nH]c3cccnc3c2-c2ncccn2)ccn1
II = CC(=O)Nc1cc(-c2[nH]c3cc(Cl)cnc3c2-c2cccc(CO)n2)ccn1
III = CC(=O)Nc1cc(-c2[nH]c3cc(C)cnc3c2-c2nc(C)cs2)ccn1
IV = CC(=O)Nc1cc(-c2[nH]c3cccnc3c2-c2ncc(C)s2)ccn1
Returns the items ordered by IC50, from maximum to minimum. Would you mind listing the labels in the order requested?
I, II, IV, III
(I: 2.03 µM, II: 0.36 µM, IV: 0.225 µM, III: 0.043 µM)

A = COc1cnc2c(-c3nc(C)ccc3F)c(-c3ccnc(NC(C)=O)c3)[nH]c2c1
B = CC(=O)Nc1cc(-c2[nH]c3cccnc3c2-c2cc(C)c(F)cn2)ccn1
For the pair A and B , which member has the lower IC50 number? Bench note: the answer is the label of the chosen record.
B
(B: 0.21 µM, A: 2.42 µM)

----------
Assay target: HIS-TGFβR1 T204D (Homo sapiens, UniProt P36897, T204D)
Protocol summary: HTRF probe-displacement assay, HIS-TGFβR1 T204D
Assay type: binding
Condition info: read-out: TGFβR1 (μM) IC50
Assay endpoint: IC50 (µM)

CCOc1cccc(-c2c(-c3ccnc(NC(C)=O)c3)[nH]c3cc(Cl)cnc23)n1 [Example 256] = 0.02

I = CC(=O)Nc1cc(-c2[nH]c3ccc(F)nc3c2-c2cccc(Cl)n2)ccn1 [Example 34]
II = COc1cnc(-c2c(-c3ccnc(NC(C)=O)c3)[nH]c3cccnc23)cn1 [Example 194]
For the pair I and II , which member has the lower IC50 number? Bench note: the answer is the label of the chosen record.
I

I = COc1ncc(-c2c(-c3ccnc(NC(C)=O)c3)[nH]c3cccnc23)cn1 [Example 27]
II = CC(=O)Nc1cc(-c2[nH]c3c(C(F)F)ccnc3c2-c2cccc(C(F)F)n2)ccn1 [Example 149]
Could you please tell me which of these two has the higher IC50: I or II ? Bench note: the answer is the label of the chosen record.
I
(I: 0.72 µM, II: 0.002 µM)

a = CC(=O)Nc1cc(-c2[nH]c3cccnc3c2-c2ccc(Cl)nc2)ccn1 [Example 9]
b = COC(=O)c1cc(Cl)nc2c(-c3ccc(F)cn3)c(-c3ccnc(NC(C)=O)c3)[nH]c12 [Example 69]
c = COc1ccc(-c2c(-c3ccnc(NC(C)=O)c3)[nH]c3cc(C#N)cnc23)cn1 [Example 78]
d = COc1cnc2c(-c3ncc(C)s3)c(-c3ccnc(NC(C)=O)c3)[nH]c2c1 [Example 209]
Returns the items ordered by IC50, from maximum to minimum. Would you mind listing the labels in the order requested?
b, a, c, d
(b: 0.76 µM, a: 0.023 µM, c: 0.003 µM, d: 0.0009 µM)

P = CC(=O)Nc1cc(-c2[nH]c3c(C(C)O)ccnc3c2-c2nc(C(F)(F)F)cs2)ccn1 (centres unmarked) [Example 231]
Q = CC(=O)Nc1cc(-c2[nH]c3cc(Cl)cnc3c2-c2cccc(NCCO)n2)ccn1 [Example 68]
Could you please tell me which of these two has the higher IC50: P or Q ? Bench note: the answer is the label of the chosen record.
Q
(Q: 0.96 µM, P: 0.001 µM)

I = COc1ccc(-c2c(-c3ccnc(NC(C)=O)c3)[nH]c3cc(N4CCC[C@H]4CO)cnc23)nc1 [Example 162]
II = CC(=O)Nc1cc(-c2[nH]c3cccnc3c2-c2cccc(OC(F)F)n2)ccn1 [Example 174]
Could you please tell me which of these two has the higher IC50: I or II ? Bench note: the answer is the label of the chosen record.
I

P = CC(=O)Nc1cc(-c2[nH]c3cccnc3c2-c2nc(C)ccc2F)ccn1 [Example 107]
Q = COc1cnc2c(-c3cccc(C(F)F)n3)c(-c3ccnc(NC(=O)CN(C)C)c3)[nH]c2c1 [Example 117]
For the pair P and Q , which member has the lower IC50 number? Bench note: the answer is the label of the chosen record.
P
(P: 0.001 µM, Q: 0.003 µM)
